tested on: Henosepilachna vigintioctopunctata; assay: Antifeedant activity against Henosepilachna vigintioctopunctata in Solanum nigrum leaves assessed as mean leaf area fed at 10 ug/cm'2 by dual choice leaf disk bioassay (reference value: 0.78 +/- 0.04 to 0.99 +/- 0.17 cm'2); assay type: functional
MEASUREMENT TYPE: Activity (cm2)
Return type: number; implicit unit cm2.

Henosepilachna vigintioctopunctata Activity of COc1cc(OC)c2c(c1OC)C(=O)C1=C(C2=O)[C@@H](C)O[C@@H](C)C1 [VENTILOQUINONE E] is 0.21

Henosepilachna vigintioctopunctata Activity of Cc1cc(O)c2c(c1)C(=O)c1cccc(O)c1C2=O [CHRYSOPHANOL] is 0.25

Henosepilachna vigintioctopunctata Activity of COc1c2c(c(O)c3c1C(=O)C1=C(C[C@H](C)O[C@@H]1C)C3=O)OCO2 [VENTILOQUINONE A] is 0.07

Henosepilachna vigintioctopunctata Activity of COc1cc(O)c2c(c1)C(=O)c1cc(C)cc(O)c1C2=O [PHYSCION] is 0.15

Henosepilachna vigintioctopunctata Activity of COc1c2c(c(O)c3c1C(=O)c1coc(C)c1C3=O)OCO2 [VENTILONE B] is 0.19
